assayed-system: human TOP1 (Homo sapiens)
Construct: made in house; host or cells: Saccharomyces cerevisiae TOP1 null strain RS190, plasmid pHT143 (GAL promoter)
Sequence (P11387 whole entry): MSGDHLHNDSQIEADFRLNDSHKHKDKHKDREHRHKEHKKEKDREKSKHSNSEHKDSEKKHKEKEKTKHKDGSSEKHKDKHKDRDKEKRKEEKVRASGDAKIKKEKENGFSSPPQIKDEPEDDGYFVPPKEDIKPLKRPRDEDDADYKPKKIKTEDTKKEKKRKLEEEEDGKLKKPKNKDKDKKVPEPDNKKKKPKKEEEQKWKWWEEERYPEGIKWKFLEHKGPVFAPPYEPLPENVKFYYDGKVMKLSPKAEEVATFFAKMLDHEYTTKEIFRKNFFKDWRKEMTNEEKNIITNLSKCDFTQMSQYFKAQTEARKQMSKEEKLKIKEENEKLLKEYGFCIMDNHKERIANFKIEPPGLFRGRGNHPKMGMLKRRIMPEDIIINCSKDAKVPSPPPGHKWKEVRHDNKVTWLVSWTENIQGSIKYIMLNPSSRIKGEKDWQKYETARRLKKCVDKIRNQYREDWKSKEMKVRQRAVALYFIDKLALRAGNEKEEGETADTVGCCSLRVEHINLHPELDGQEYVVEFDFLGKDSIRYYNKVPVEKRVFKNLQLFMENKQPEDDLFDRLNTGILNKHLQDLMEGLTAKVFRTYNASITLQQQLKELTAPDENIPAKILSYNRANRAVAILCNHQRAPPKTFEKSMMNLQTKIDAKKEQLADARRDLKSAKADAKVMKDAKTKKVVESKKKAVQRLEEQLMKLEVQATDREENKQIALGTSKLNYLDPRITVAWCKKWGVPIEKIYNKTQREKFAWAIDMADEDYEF
protocol-details: TOP1 supercoiled plasmid DNA relaxation assay
Assay type: biochemical
assay-conditions: 5 min reaction; compounds at 100 μM; semiquantitative
reported-endpoint: TOP1 Inhibition 5 min

Before answering, review these 5 worked examples.
O=P(c1ccccc1)(c1ccccc1)c1ccc2nc(-c3ccc(C(F)(F)F)cc3)c3c(c2c1)-c1ccccc1C3 :: +++ (strong inhibition)
COc1cccc(-c2nc3ccc(P(=O)(c4ccccc4)c4ccccc4)cc3c3c2Cc2ccccc2-3)c1 :: ++
O=C1c2ccccc2-c2c1c(-c1ccc(C(F)(F)F)cc1)nc1ccc(P(=O)(c3ccccc3)c3ccccc3)cc21 [Compound 10b] :: ++
O=P(c1ccccc1)(c1ccccc1)c1ccc2c(c1)C1c3ccccc3CC1C(c1ccc(F)cc1F)N2 (centres unmarked) :: + (weak inhibition)
O=P(c1ccccc1)(c1ccccc1)c1ccc2c(c1)C1c3ccccc3CC1C(c1ccccc1)N2 (centres unmarked) :: ++

Query: Report TOP1 Inhibition 5 min for O=C1c2ccccc2-c2c1c(-c1cccc(F)c1)nc1ccc(P(=O)(c3ccccc3)c3ccccc3)cc21 [Compound 10d] tested on human TOP1 (Homo sapiens).
Response: + (weak inhibition)

Query: Try this molecule too: O=P(c1ccccc1)(c1ccccc1)c1ccc2c(c1)C1c3ccccc3CC1C(c1ccc(F)c(F)c1)N2 (centres unmarked)
Response: ++
